System: MDA-MB-231
assaySummary: Antiproliferative activity against human […] cells measured by cell viability assay
Assay type: functional, cell-based
Here the recorded pIC50 is given for each entry.
Notebook: values listed as pIC50 are -log10 of the concentration (mol/L).

chemSmiles	value
c1cc2c(cn1)Oc1ccc3cc1N2CCOCCNCCCCO3	4.36
c1cc2c(cn1)Oc1ccc3cc1N2CCCCNCCCCO3	4.72
c1cc2c(cn1)Oc1ccc3cc1N2CCCCCNCCOCCO3	4.59
c1cc2c(cn1)Oc1ccc3cc1N2CCCCNCCOCCO3	4.91
c1cc2c(cn1)Oc1ccc3cc1N2CCCNCCOCCO3	4.71
c1cc2c(cn1)Oc1ccc3cc1N2CCOCCNCCCCCO3	4.45

-- ask Entry c1cc2c(cn1)Oc1ccc3cc1N2CCOCCNCCCO3 needs its pIC50 filled in; supply it.
-- reply 4.52

-- ask Entry c1cc2c(cn1)Oc1ccc3cc1N2CCCCNCCCCCO3 needs its pIC50 filled in; supply it.
-- reply 4.79

-- ask Entry c1cc2c(cn1)Oc1ccc3cc1N2CCCCCNCCCCO3 needs its pIC50 filled in; supply it.
-- reply 5.09

---

So I've got IC50 readings for Serine/threonine-protein kinase pim-1 (Homo sapiens), take a look.
Quick note: give the figure in nM, leave out the unit.

chemSmiles	unitOfMeasure	IC50
c1cc2c(cn1)Oc1ccc3cc1N2CCCNCCOCCO3	nM	57.3
c1cc2c(cn1)Oc1ccc3cc1N2CCCCCNCCOCCO3	nM	140
c1cc2c(cn1)Oc1ccc3cc1N2CCOCCNCCCO3	nM	881

# evaluate next
-- ask # assay system Serine/threonine-protein kinase pim-1 (Homo sapiens): give IC50 of c1cc2c(cn1)Oc1ccc3cc1N2CCOCCNCCCCCO3
-- reply 2180
